All figures here come from patent US20230295200A1.

target: UniProt:P42226
Sequence (P42226 whole entry): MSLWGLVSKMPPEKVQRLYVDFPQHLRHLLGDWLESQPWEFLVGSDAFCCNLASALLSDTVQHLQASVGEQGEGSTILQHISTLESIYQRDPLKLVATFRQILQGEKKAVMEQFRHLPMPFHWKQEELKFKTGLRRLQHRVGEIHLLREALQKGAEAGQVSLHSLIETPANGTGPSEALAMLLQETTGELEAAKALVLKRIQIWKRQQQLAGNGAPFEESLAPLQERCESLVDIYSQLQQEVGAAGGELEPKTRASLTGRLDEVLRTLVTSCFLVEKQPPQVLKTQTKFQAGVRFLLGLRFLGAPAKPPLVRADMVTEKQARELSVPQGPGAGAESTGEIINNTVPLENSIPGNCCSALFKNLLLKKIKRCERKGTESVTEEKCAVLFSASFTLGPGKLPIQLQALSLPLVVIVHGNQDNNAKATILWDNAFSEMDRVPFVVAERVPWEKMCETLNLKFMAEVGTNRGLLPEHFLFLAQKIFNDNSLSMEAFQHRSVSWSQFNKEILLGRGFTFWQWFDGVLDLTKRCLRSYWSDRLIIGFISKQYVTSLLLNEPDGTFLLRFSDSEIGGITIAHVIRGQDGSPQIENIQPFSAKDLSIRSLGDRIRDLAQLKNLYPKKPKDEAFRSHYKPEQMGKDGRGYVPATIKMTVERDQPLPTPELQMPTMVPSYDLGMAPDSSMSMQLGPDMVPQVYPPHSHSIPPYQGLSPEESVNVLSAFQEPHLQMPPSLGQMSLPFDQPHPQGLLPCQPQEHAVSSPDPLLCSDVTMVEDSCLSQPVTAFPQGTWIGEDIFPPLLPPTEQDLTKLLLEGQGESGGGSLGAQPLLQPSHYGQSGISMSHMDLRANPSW
test: Fluorescence polarization (FP) binding assay, STAT6
conditions used: FP competition, 5 nM fluorescein-labeled tracer, 200 nM protein, PBS pH7.4; read-out: Binding STAT6
pKi: −log10 of the molar value.
value type: pKi

compound	target	pKi
CC(=O)N1CCN(C(=O)[C@@H](NC(=O)c2cc3cc(C(F)(F)P(=O)(O)O)ccc3s2)C(C)(C)C)[C@H](C(=O)N2CC[C@H](c3ccccc3)C2)C1	UniProt:P42226	5.00 to 6.00

Input line: Please give the measured pKi for this compound: `CC(C)(C)[C@H](NC(=O)c1cc2cc(C(F)(F)P(=O)(O)O)ccc2s1)C(=O)N1C[C@@H](Oc2ccccc2)C[C@H]1C(=O)Nc1ncc(-c2ccccc2)s1`
Output line: 5.00 to 6.00

Input line: Entry CC(C)(C)[C@H](NC(=O)c1cc2cc(C(F)(F)P(=O)(O)O)ccc2s1)C(=O)N1CCC[C@H]1C(=O)N1CCOC(c2ccc(Cl)c(Cl)c2)C1 (some centres unmarked) please
Output line: 6.00 to 7.00

Input line: Entry `CN(C(=O)[C@@H]1CCCN1C(=O)[C@@H](NC(=O)c1cc2cc(C(F)(F)P(=O)(O)O)ccc2[nH]1)C(C)(C)C)C(c1ccccc1)c1ccccc1` please
Output line: < 5.00

Input line: Entry `CC(=O)N1CC[C@H]2CC[C@@H](C(=O)N3CCC4(CCCCC4)C3)N2C(=O)[C@@H](NC(=O)c2cc3cc(C(F)(F)P(=O)(O)O)ccc3s2)C1` please
Output line: < 5.00
